- ASSAY: Quantitative High-Throughput drug screen in 47 multiple myeloma cell lines against the NCATS MIPE library collection: KMM1_JCRB cell viability assay (AID 1918960); also: nearly all actives have a fitted effect of over 30% in size
- CONDITION DETAILS: KMM1 myeloma viability, CellTiter-Glo ATP luminescence, 48 h; series mostly up to 45.8 µM
Records with an inconclusive call do not appear. The source made the active and inactive calls. Calls follow the shape of the dose curve; as a rule, active = well fitted cell-killing curve with a large enough effect; inconclusive = small, poorly fitted or top-dose-only effect, or effect the other way; inactive = no such curve, though single readings can be large or run the other way.
Select the matching outcome among YES for active, NO for inactive

Worked examples follow.
COMPOUND | LABEL
CC(C)C[C@H](NC(=O)CNC(=O)c1cc(Cl)ccc1Cl)B1OC(=O)CC(CC(=O)O)(C(=O)O)O1 (stereo partly drawn) | YES
CC(=O)C1=C(O)C=C2Oc3c(C(C)=O)c(O)c(C)c(O)c3C2(C)C1=O (stereo not drawn) | NO
O=C(O)CCCCCC(=O)NN=C1CCCC1 | NO
CCN1CCN(C(=O)N[C@H](C(=O)N[C@@H]2C(=O)N3C(C(=O)O)=C(CSc4nnnn4C)CS[C@@H]23)c2ccc(O)cc2)C(=O)C1=O | NO
Nc1nc(N)c2nc(-c3cccc(O)c3)c(-c3cccc(O)c3)nc2n1 | YES

QUERY: How did this test come out for NC(=O)N1CCC(CC(=O)N2CCC([C@H]3c4ncc(Br)cc4CCc4cc(Cl)cc(Br)c43)CC2)CC1 ?
RESULT: YES

QUERY: How did this test come out for C[C@H]1O[C@H](O[C@H]2[C@H](O)[C@@H](O)[C@@H](O[C@H]3[C@H](O)[C@@H](O)C(O)O[C@H]3CO)O[C@H]2CO)[C@H](O)[C@@H](O)[C@H]1N[C@H]1C=C(CO)[C@@H](O)[C@H](O)[C@@H]1O (stereo partly drawn) ?
RESULT: NO

QUERY: How did this test come out for O=C(O)CCCCC(CCSCc1ccccc1)SCc1ccccc1 (stereo not drawn) ?
RESULT: YES

---

- ASSAY: Quantitative High-Throughput drug screen in 47 multiple myeloma cell lines against the NCATS MIPE library collection: KMS26_JCRB cell viability assay (AID 1918975); also: nearly all actives have a fitted effect of over 45% in size
- CONDITION DETAILS: KMS26 myeloma cells viability, CellTiter-Glo ATP, 48 h; series mostly up to 45.8 µM
Inconclusive results are not listed. Activity calls are given as the source filed them. The call rests on the fitted dose curve; in most records, active means well fitted cell-killing curve with a large enough effect; inconclusive means small, poorly fitted or top-dose-only effect, or effect the other way; inactive means no such curve, though single readings can be large or run the other way.
Select the matching outcome among active, inactive

Worked examples follow.
MOLECULE | LABEL
COc1cc(O)c2c(c1)C1OC1C[C@H](O)[C@H](O)C(=O)C=CC[C@H](C)OC2=O (stereo partly specified) | active
CS[C@H]1SC[C@@H]2C(=O)N(C)[C@H](C(C)C)C(=O)OC[C@H](NC(=O)c3cnc4ccccc4n3)C(=O)N[C@H](C)C(=O)N(C)[C@@H]1C(=O)N(C)[C@H](C(C)C)C(=O)OC[C@H](NC(=O)c1cnc3ccccc3n1)C(=O)N[C@H](C)C(=O)N2C | active
CCOC(=O)N1CCN([N+]([O-])=NOc2ccc([N+](=O)[O-])cc2C#N)CC1 | active
NC(=NCCCCCCN=C(N)N=C(N)Nc1ccc(Cl)cc1)N=C(N)Nc1ccc(Cl)cc1 | active
CCN(CC)CCNC(=O)c1c(C)[nH]c(C=C2C(=O)Nc3ccc(F)cc32)c1C | active

QUERY: How did this test come out for COC[C@H](NC(=O)c1cnc(C)s1)C(=O)N[C@@H](COC)C(=O)N[C@@H](Cc1ccccc1)C(=O)[C@@]1(C)CO1 ?
RESULT: active

QUERY: How did this test come out for Oc1cc2c(cc1O)C1c3ccc(O)c(O)c3OCC1(O)C2 (stereo unspecified) ?
RESULT: inactive

QUERY: How did this test come out for CCOc1cc2c(c(F)c1OCC)C(=N)N(CC(=O)c1cc(N3CCOCC3)c(OC)c(C(C)(C)C)c1)C2 ?
RESULT: active

QUERY: How did this test come out for NC(=O)Nc1cc(-c2ccc(CN3CCOCC3)cc2)sc1C(N)=O ?
RESULT: active

QUERY: How did this test come out for CC(=O)[C@]1(O)Cc2c(O)c3c(c(O)c2[C@@H](O[C@H]2C[C@H](N)[C@@H](O)[C@H](C)O2)C1)C(=O)c1ccccc1C3=O ?
RESULT: active

QUERY: How did this test come out for OC[C@@H](O)[C@@H](O)[C@H](O)[C@@H](O)CO ?
RESULT: inactive

---

- TESTED ON: Cytochrome P450 2D6 (Homo sapiens) (UniProt P10635)
- Sequence (P10635 whole entry, looked up): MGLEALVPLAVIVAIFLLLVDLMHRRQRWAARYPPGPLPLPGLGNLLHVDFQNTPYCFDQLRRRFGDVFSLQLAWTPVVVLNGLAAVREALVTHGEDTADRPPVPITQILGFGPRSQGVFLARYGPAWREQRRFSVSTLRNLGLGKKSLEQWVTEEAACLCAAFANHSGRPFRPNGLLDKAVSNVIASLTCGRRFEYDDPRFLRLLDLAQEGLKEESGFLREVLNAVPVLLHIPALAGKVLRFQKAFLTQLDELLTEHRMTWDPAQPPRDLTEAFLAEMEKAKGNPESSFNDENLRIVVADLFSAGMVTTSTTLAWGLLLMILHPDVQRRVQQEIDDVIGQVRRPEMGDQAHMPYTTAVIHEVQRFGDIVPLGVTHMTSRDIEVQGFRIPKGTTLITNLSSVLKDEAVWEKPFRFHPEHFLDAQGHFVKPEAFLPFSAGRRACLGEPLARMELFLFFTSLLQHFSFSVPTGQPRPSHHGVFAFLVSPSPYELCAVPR
- ASSAY: Cytochrome P450 family 2 subfamily D member 6 (CYP2D6) small molecule antagonists: luciferase biochemical (cell-free) qHTS assay (AID 1645840); also: nearly all actives have a fitted effect of over 55% in size
- CONDITION DETAILS: P450-Glo CYP2D6 enzyme, luciferin luminescence, 1 h; series mostly up to 57.4 µM
Records with an inconclusive call do not appear. Active and inactive are the calls of the source. Calls come from the whole dose curve; as a rule, active = well fitted inhibition curve with a large enough effect in the repeat runs; inconclusive = weak or mixed curves; inactive = flat fitted curve, though single readings scatter.
Select the matching outcome among active, inactive

Worked examples follow.
MOLECULE SMILES | LABEL
FC(F)c1nc2ccccc2n1-c1nc(N2CCOCC2)nc(N2CCOCC2)n1 | inactive
Cn1cc(CNCC2CCN(c3ncc(C(=O)NO)cn3)CC2)c2ccccc21 | active

QUERY: How did this test come out for C[C@H](O)[C@@H]1C(=O)N2C(C(=O)O)=C(S[C@@H]3CN[C@H](CNS(N)(=O)=O)C3)[C@@H](C)[C@@H]12 ?
RESULT: inactive

QUERY: How did this test come out for C#Cc1cccc(Nc2ncnc3cc(OCCOC)c(OCCO)cc23)c1 ?
RESULT: active

QUERY: How did this test come out for CS(=O)(=O)N1CCc2c(-c3cnc(N)nc3)nc(N3CCOCC3)nc21 ?
RESULT: inactive

QUERY: How did this test come out for CC(C)Oc1ccc(C(=O)N[C@H](CNC(=O)CN(C)C)Cc2ccc(-c3cn4cccc([C@H](C)O)c4n3)cc2)cc1Cl ?
RESULT: active

---

- ASSAY: qHTS drug screen for cell cycle checkpoint inhibitors in PARPi-resistant BRCA-mutant ovarian cancer cell lines. (AID 1963452)
- CONDITION DETAILS: PEO1/OlaR viability, CellTiter-Glo luminescence, 96 h; measured here: PEO4 Z-AUC; stronger effect = lower value
# Lookup of reported Z-AUC keyed by entry
Give a plain numeric answer without units written out.

QUERY: Return Z-AUC (reported value) for this compound: Nc1ccn(C2CO[C@H](CO)O2)c(=O)n1 (stereo partly specified)
RESULT: 0.884

QUERY: Return Z-AUC (reported value) for this compound: CCN(C(=O)c1c(O)c2c(Cl)cccc2n(C)c1=O)c1ccccc1
RESULT: -1.09

QUERY: Return Z-AUC (reported value) for this compound: CCCCCCCN(CC)CCCC(O)c1ccc(NS(C)(=O)=O)cc1 (stereo unspecified)
RESULT: 1.03

QUERY: Return Z-AUC (reported value) for this compound: Cc1cc(Nc2ncc3c(n2)N(C)C(=O)N(c2cc(NC(=O)c4cccc(C(F)(F)F)c4)ccc2C)C3)n(C)n1
RESULT: -1.33

QUERY: Return Z-AUC (reported value) for this compound: CCN(CC)Cc1ccc2cc(COC(=O)Nc3ccc(C(=O)NO)cc3)ccc2c1
RESULT: -1.29

QUERY: Return Z-AUC (reported value) for this compound: Cc1ccccc1C(=O)Nc1ccc(C(=O)N2CCCC(O)c3cc(Cl)ccc32)c(C)c1 (stereo unspecified)
RESULT: 0.00137

QUERY: Return Z-AUC (reported value) for this compound: COC(=O)C1C2CC3c4[nH]c5cc(OC)ccc5c4CCN3CC2CC(OC(=O)c2cc(OC)c(OC)c(OC)c2)C1OC (stereo unspecified)
RESULT: 0.416

QUERY: Return Z-AUC (reported value) for this compound: Nc1ccc(C(=O)Nc2cccc(-c3nc(N4CCOCC4)c4oc5ncccc5c4n3)c2)cn1
RESULT: 0.731

QUERY: Return Z-AUC (reported value) for this compound: O=C1c2cccc(O)c2C(=O)c2c(O)cc(CO)cc21
RESULT: -0.301

QUERY: Return Z-AUC (reported value) for this compound: CC(O)(C#Cc1ccc2c(c1)N(c1nc(N)ncc1Cl)CC2)c1nccs1 (stereo unspecified)
RESULT: -0.647

---

- ASSAY: Quantitative High-Throughput drug screen in 47 multiple myeloma cell lines against the NCATS MIPE library collection: PCM6_Riken cell viability assay (AID 1919870); also: nearly all actives have a fitted effect of over 30% in size; also: potency is read from the fitted curve at half-maximal effect
- CONDITION DETAILS: CellTiter-Glo ATP, 48 h; series mostly up to 45.8 µM
Results filed as inconclusive are left out. Calls of active or inactive are those of the source. The call rests on the fitted dose curve; in most records, active means well fitted cell-killing curve with a large enough effect; inconclusive means small, poorly fitted or top-dose-only effect, or effect the other way; inactive means no such curve, though single readings can be large or run the other way.
PROPERTY MEASURED: Potency

Below are worked cases with known answers.
MOLECULE SMILES | Potency
CCOC(=O)N1CCN([N+]([O-])=NOc2ccc([N+](=O)[O-])cc2C#N)CC1 | 0.469 µM (active)
COC1=C(OC)C(=O)C(CC=C(C)CCC=C(C)CCC=C(C)CCC=C(C)CCC=C(C)CCC=C(C)CCC=C(C)CCC=C(C)CCC=C(C)CCC=C(C)C)=C(C)C1=O | inactive
CC(C=CC=C(C)C=CC1=C(C)CCCC1(C)C)=CC=CC=C(C)C=CC=C(C)C=CC1=C(C)CCCC1(C)C | 23.5 µM (active)
CC(=O)ON=C1C(c2c(O)[nH]c3cc(Br)ccc23)=Nc2ccccc21 | 2.96 µM (active)

QUERY: Return Potency (reported value) for this compound: N#CNC(=NCCCCCCOc1ccc(Cl)cc1)Nc1ccncc1
RESULT: 0.001 µM (active)

QUERY: Return Potency (reported value) for this compound: C[C@@H](Oc1ccc2[nH]nc(C=Cc3cnn(CCO)c3)c2c1)c1c(Cl)cncc1Cl
RESULT: 4.18 µM (active)

QUERY: Return Potency (reported value) for this compound: COC(=O)C=CC(=O)OC
RESULT: 3.32 µM (active)

QUERY: Return Potency (reported value) for this compound: N#CC(=C(N)Sc1ccc(N)cc1)c1ccccc1C(F)(F)F
RESULT: inactive

QUERY: Return Potency (reported value) for this compound: CCCCCCCCc1ccc(CCC(N)(CO)CO)cc1
RESULT: 3.72 µM (active)

QUERY: Return Potency (reported value) for this compound: CC(C)(O)[C@H]1CC[C@@](C)([C@H]2[C@@H](O)C[C@@]3(C)[C@@H]4C[C@H](O[C@@H]5O[C@H](CO)[C@@H](O)[C@H](O)[C@@H]5O)[C@H]5C(C)(C)[C@@H](O[C@@H]6OC[C@@H](O)[C@H](O)[C@@H]6O)CC[C@@]56C[C@@]46CC[C@]23C)O1
RESULT: inactive

QUERY: Return Potency (reported value) for this compound: CNC(=O)c1ccc(Nc2cc(Nc3ccccc3S(=O)(=O)C(C)C)c3cc[nH]c3n2)nc1
RESULT: 1.18 µM (active)

QUERY: Return Potency (reported value) for this compound: CC[C@H]1OC(=O)[C@H](C)[C@@H](O[C@H]2C[C@@](C)(OC)[C@@H](O)[C@H](C)O2)[C@H](C)[C@@H](O[C@@H]2O[C@H](C)C[C@H](N(C)C)[C@@H]2O)[C@](C)(OC)C[C@@H](C)C(=O)[C@H](C)[C@@H](O)[C@]1(C)O
RESULT: inactive

QUERY: Return Potency (reported value) for this compound: C=CCNC1=C2C[C@@H](C)C[C@H](OC)[C@@H](O)[C@@H](C)C=C(C)[C@H](OC(N)=O)[C@@H](OC)C=CC=C(C)C(=O)NC(=CC1=O)C2=O
RESULT: 1.48 µM (active)

QUERY: Return Potency (reported value) for this compound: NC(=O)c1ncn([C@@H]2O[C@H](CO)[C@@H](O)[C@@H]2O)c1N
RESULT: inactive

QUERY: Return Potency (reported value) for this compound: CO[C@@H]1[C@@H](O)[C@H](O)[C@@H](n2c3c(Cl)cccc3c3c4c(c5c6cccc(Cl)c6[nH]c5c32)C(=O)NC4=O)O[C@@H]1CO
RESULT: 1.48 µM (active)

All figures here come from PubChem BioAssay (NCATS).
